Attribution: ChEMBL document CHEMBL1138415

- Species: Homo sapiens
- method-description: Selectivity for human dopamine D2L receptor over human dopamine D3 receptor
measured-property: Ratio Ki
When you answer, write just the number.

Value lookup for Ratio Ki; key = "C=CCOC1(c2ccc(Cl)cc2)CCN(Cc2c[nH]c3ccccc23)CC1"
4

Value lookup for Ratio Ki; key = "COC1(c2ccc(Cl)cc2)CCN(Cc2c[nH]c3ccccc23)CC1"
4

Value lookup for Ratio Ki; key = "OC1(c2ccc(Cl)c(Cl)c2)CCN(Cc2coc3ccccc23)CC1"
1

Value lookup for Ratio Ki; key = "OC1(c2cccc(C(F)(F)F)c2)CCN(Cc2c[nH]c3ccccc23)CC1"
5

Value lookup for Ratio Ki; key = "COC(=O)C1(c2ccc(Cl)cc2)CCN(Cc2c[nH]c3ccccc23)CC1"
9
